Target: Acetylcholinesterase (Homo sapiens, UniProt P22303)
Sequence (P22303 whole entry): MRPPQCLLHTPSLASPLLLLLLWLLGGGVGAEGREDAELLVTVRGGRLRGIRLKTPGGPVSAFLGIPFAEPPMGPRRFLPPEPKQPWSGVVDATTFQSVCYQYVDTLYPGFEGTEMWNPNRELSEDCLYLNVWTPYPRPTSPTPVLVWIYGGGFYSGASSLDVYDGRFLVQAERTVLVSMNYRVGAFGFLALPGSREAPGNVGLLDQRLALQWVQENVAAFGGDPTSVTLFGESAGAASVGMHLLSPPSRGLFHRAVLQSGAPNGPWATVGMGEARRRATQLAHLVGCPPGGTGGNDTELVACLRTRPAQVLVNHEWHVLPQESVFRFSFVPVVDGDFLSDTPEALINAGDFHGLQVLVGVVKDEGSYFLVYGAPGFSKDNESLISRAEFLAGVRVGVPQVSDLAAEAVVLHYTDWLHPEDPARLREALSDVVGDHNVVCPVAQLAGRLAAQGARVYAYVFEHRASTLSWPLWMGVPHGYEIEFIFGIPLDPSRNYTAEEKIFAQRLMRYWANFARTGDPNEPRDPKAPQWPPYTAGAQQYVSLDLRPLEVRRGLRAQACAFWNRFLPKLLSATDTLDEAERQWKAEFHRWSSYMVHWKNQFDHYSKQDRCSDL
Assay: Mixed-type inhibition of human AChE assessed as hydrolysis of acetylthiocholine by Lineweaver-Burk plot analysis
experimental_endpoint: Ki (nM)
Numbers only, in nM.

Identify the reported Ki for the following entry. "Clc1ccc2c(NCCCCCCCNc3c4c(nc5ccccc35)-c3ccccc3C4)c3c(nc2c1)CCCC3"
1.01
